Tested on: SK-OV-3 ovarian
Experiment: NCI tumour cell line growth inhibition, 48 h
readout: TGI (µM)
Provide the reading as a plain figure in µM.

compound=O=C1c2ccccc2-c2nc(-c3ccccc3)cc3c2c1nc1ccccc13 readout=TGI display_unit=µM result=55.2

Query string: Lookup: TGI / SK-OV-3 ovarian / `CC/C=C\C/C=C/C=C1/C(=O)C=C[C@@H]1C/C=C\CCCC(=O)OC`
Result string: 49.9

Query string: Notebook entry, SK-OV-3 ovarian assay: TGI of CCN1CCCC(Nc2cc(C)nc(/N=C(/N)Nc3ccc(Cl)c(Cl)c3)n2)C1 (stereo not given) = ?
Result string: 5.24

* * *

System: HCT-15 colon
Experiment: NCI tumour cell line growth inhibition, 48 h
readout: TGI

These solved cases illustrate the format of a correct answer.
molecule=Nc1ncccc1-c1nc2ccc(-c3ccccc3)nc2n1-c1ccc(C2(N)CCC2)cc1 result="4.27 µM"
molecule="CC1(C)CCCCCCCCCC(C)(CCCCCCCCCCCCO)C1=O (stereo not drawn)" result="55 µM"
molecule=O=C1/C(=C/c2cccc(Br)c2)COc2ccc(O)c(O)c21 result="3.88 µM"
molecule="CSc1ncc2c(n1)-c1ccccc1OC2NC(C)(C)C (stereo not drawn)" result="> 100 µM"
molecule="Nc1ccc(C(=O)NN2C(=O)C(Cl)C2c2cccc(O)c2)cc1 (stereo not drawn)" result="25.3 µM"
molecule="NCCC(=O)NC(Cc1cnc[nH]1)C(=O)O (stereo not drawn)" result="> 100 µM"
molecule="CC(=O)C12C[C@](C#N)(N3CCCCCC3)C1C=Cc1ccccc12 (stereo partly drawn)" result="> 100 µM"
molecule=Cn1nnc2c(C(N)=O)ncn2c1=O result="> 100 µM"
molecule=CCSc1nc(N)c(C#N)c(-c2ccco2)c1C#N result="> 100 µM"
molecule=COCCOCOC(C)(C)[C@H](CCOC(C)=O)O[Si](c1ccccc1)(c1ccccc1)C(C)(C)C result="> 100 µM"

Query string: Which value of TGI has been reported for CC(C)(C)OC(=O)NCC(=O)NC1C/C(=N\O)c2sccc21 (stereo not drawn) in the records?
Result string: > 100 µM

Query string: Please give the measured TGI for this molecule: `CSCCCNC(=O)c1csc(-c2csc(CCNC(=O)CNC(=O)CNC(=O)CNC(=O)OC(C)(C)C)n2)n1`
Result string: > 100 µM

Query string: Fill in: TGI of `COc1cc(OC)c2c(O)c(S(=O)(=O)c3ccc(C)cc3)c(=O)oc2c1` is ___
Result string: > 100 µM

Query string: # query: TGI of entry `ONC1=Nc2ccccc2OCc2cc(Br)c(Br)cc2COc2ccccc2N=C1NO`
Result string: > 44.4 µM

Query string: Name the recorded TGI for C#C[C@H]1CCCCCC1O (stereo partly drawn) .
Result string: > 100 µM

Query string: I have this molecule here, `O=C(Nc1ccccc1Cl)c1cccc(NC2=C(Cl)C(=O)N(Cc3ccccc3)C2=O)c1` , and I need its recorded TGI.
Result string: > 100 µM

Query string: Can you look up the measured TGI of `NC(=O)C12CC3CC(CC(Br)(C3)C1)C2` for me?
Result string: > 100 µM

Query string: Which value of TGI has been reported for `NNc1c2ccccc2nc2ccccc12` in the records?
Result string: 34.2 µM

Query string: I would be grateful if you could share the reported TGI for `O=C(N/N=C/c1ccc(Cl)cc1)c1cc(I)cc(I)c1O` .
Result string: > 100 µM

Query string: I'd like to know its TGI. The molecule in question is `CC(=O)NNc1nc(C)c(C(=O)/C=C/c2ccc(/C=C/C(=O)c3sc(NNC(C)=O)nc3C)cc2)s1`
Result string: > 100 µM

Query string: Look up TGI: Cc1nn(C(=O)c2ccncc2)c2c1C(c1cccc([N+](=O)[O-])c1)SC(N)=N2 (stereo not drawn)
Result string: > 10 µM

Query string: Look up TGI: `O/N=C1\CCc2nonc2\C1=N/Nc1ccccc1`
Result string: > 100 µM

Query string: For the molecule shown here, `O=C1c2ccccc2C(=O)N1C1(C(=O)NC2(C(=O)O)CCCC2)CCCC1` , give the reported TGI.
Result string: > 100 µM
